Test: Excretion into urine after oral administration
Settings: rabbit, 10 mg/kg

{"COMPOUND": "COC(=O)[C@H]1[C@H]2C[C@@H]3c4[nH]c5cc(OC)ccc5c4CCN3C[C@H]2C[C@@H](O)[C@@H]1OC [MR, methylreserpate]", "dose excreted at 48 h": "10 to 15%"}

----------
Assay: in vivo
Format: in vivo, rat (SD (SPF))
Settings: rat, in vivo; oral sub-acute, rats; read-out: ineffective dose
NOAEL reference
MEASURED_METRIC: NOAEL (mg/kg)

{"COMPOUND": "COC(=O)[C@H]1[C@H]2C[C@@H]3c4[nH]c5cc(OC)ccc5c4CCN3C[C@H]2C[C@@H](O)[C@@H]1OC [MR, methylreserpate]", "READOUT_NUMBER": 12.5}
{"COMPOUND": "COC(=O)[C@H]1[C@H]2C[C@@H]3c4[nH]c5cc(OC)ccc5c4CCN3C[C@H]2C[C@@H](OC(=O)/C=C/c2cc(OC)c(OC)c(OC)c2)[C@@H]1OC", "READOUT_NUMBER": 6}
